- protocol.text: LD50 rat (i.v.)
- recorded.conditions: in vivo, iv, injection rate 2 ml/min, concentration 300 mg/ml, observation period 24 h
Entries and their measured LD50 at 24 h follow.
Reply numerically in mg/kg, unit not repeated.

| molecule | LD50 at 24 h / mg/kg |
| --- | --- |
| O=C(c1c(I)c(C(=O)N(CCO)CCO)c(I)c(C(=O)N(CCO)CCO)c1I)N(CCO)CCO | 12000 |
| CN(C)C(=O)c1c(I)c(C(=O)NCC(O)CO)c(I)c(C(=O)NCC(O)CO)c1I (centres unmarked) | 11000 |
| CNC(=O)c1c(I)c(C(=O)NC(CO)C(O)CO)c(I)c(C(=O)NC(CO)C(O)CO)c1I (centres unmarked) | 19000 |
| CC(=O)Nc1c(I)c(C(=O)N[C@H]2C(O)O[C@H](CO)[C@@H](O)[C@@H]2O)c(I)c(N(C)C(C)=O)c1I (some centres unmarked) [A, reference compound] | 11000 |

Now for the molecule whose LD50 at 24 h we want.
Name the reported LD50 at 24 h value associated with the molecule CN(CC(O)CO)C(=O)c1c(I)c(C(=O)N(C)CC(O)CO)c(I)c(C(=O)N(C)CC(O)CO)c1I (centres unmarked)
11000
